Source of measurements: patent US10550105B2

# tested system: PARP7 (Homo sapiens (Human))
# Sequence (Q7Z3E1 whole entry): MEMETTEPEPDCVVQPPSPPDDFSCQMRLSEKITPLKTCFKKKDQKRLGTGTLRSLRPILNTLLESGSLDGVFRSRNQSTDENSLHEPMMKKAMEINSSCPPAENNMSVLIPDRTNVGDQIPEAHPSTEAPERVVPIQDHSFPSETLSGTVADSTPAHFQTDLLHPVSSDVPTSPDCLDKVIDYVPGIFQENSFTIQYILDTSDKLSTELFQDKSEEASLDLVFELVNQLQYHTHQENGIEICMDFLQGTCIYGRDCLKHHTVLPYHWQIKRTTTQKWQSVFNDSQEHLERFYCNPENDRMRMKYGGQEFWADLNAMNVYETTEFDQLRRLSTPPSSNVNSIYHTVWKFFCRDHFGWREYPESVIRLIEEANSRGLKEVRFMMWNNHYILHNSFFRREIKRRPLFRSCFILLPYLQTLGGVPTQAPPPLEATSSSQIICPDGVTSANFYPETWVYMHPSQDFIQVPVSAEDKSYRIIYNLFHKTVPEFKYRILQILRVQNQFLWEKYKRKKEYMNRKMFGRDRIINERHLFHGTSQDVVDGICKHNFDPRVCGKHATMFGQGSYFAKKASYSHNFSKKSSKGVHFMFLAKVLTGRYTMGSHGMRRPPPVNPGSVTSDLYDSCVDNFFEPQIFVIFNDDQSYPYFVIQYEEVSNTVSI
# method notes: Enzymatic assay for inhibition of PARP7: TR-FRET displacement of biotinylated Probe A from the TIPARP active site
# experimental setup: Table A-1
measurement label: IC50

[
  {
    "compound": "CN(CCOCCC(=O)N1CCN(c2ccc(C#N)cn2)CC1)c1cn[nH]c(=O)c1C(F)(F)F",
    "measured": "< 100 nM"
  },
  {
    "compound": "N#Cc1ccc(N2CCN(C(=O)C[C@@H]3CC[C@H](COc4cn[nH]c(=O)c4Cl)O3)CC2)nc1 [Example 582 Isomer D]",
    "measured": "≥ 1000 nM"
  },
  {
    "compound": "C[C@@H](COCCC(=O)N1CCN(c2ncc(Cl)cn2)CC1)Nc1cn[nH]c(=O)c1Br",
    "measured": "< 100 nM"
  },
  {
    "compound": "O=C(CCOCCOc1cn[nH]c(=O)c1C(F)(F)F)N1CCN(c2ncc(C(F)(F)F)cn2)CC1",
    "measured": "< 100 nM"
  }
]
